// inhibition at 10 µM lookup, one value per entry
# Test system: MCF7
# measurement description: Antiproliferative activity (MTS) on MCF7
# Type: cell-based, human
# condition details: Homo sapiens, MCF7; 10^-5 M, 72 hours, triplicate; read-out: percentage of inhibition of cell growth, MCF7
Please give a number only; it is taken to be in %.

Please review the entries below; each comes with its answer.
compound: CC1(CN2C(=O)S/C(=C\c3cc(Br)c(O)c(Br)c3)C2=O)CCCCC1 [L, reference compound]
unit abbrev: %
test value: 76

compound: Cc1c(C)c2c(c(C)c1O)CCC(C)(CN1C(=O)S/C(=C\c3ccc(O)cc3)C1=O)O2 (racemic)
unit abbrev: %
test value: 95

compound: Cc1c(C)c2c(c(C)c1CCCCCCNC(=O)OC(C)(C)C)CCC(C)(COc1ccc(/C=C3\SC(=O)NC3=O)cc1)O2 (racemic)
unit abbrev: %
test value: 24

Request: Item Cc1c(C)c2c(c(C)c1O)CCC(C)(COc1ccc(CC3SC(=O)NC3=O)cc1)O2 (stereo not shown) [K, troglitazone, reference compound] : provide inhibition at 10 µM
Result: 3

---

// inhibition at 10 µM lookup, one value per entry
# Tested on: HepG2
# measurement description: Antiproliferative activity (MTS) on HepG2
# Type: cell-based
# condition details: Homo sapiens, 10^-5 M, 72 hours, triplicate, read-out: percentage of inhibition of cell growth, HepG2
Structures can show the parent of a compound that is named as a salt.
Please give a number only; it is taken to be in %.

Please review the entries below; each comes with its answer.
molecule: CCN(CC)c1ccc2c(-c3ccc(NC(=S)NCCCCCCc4c(C)c(C)c5c(c4C)CCC(C)(COc4ccc(/C=C6\SC(=O)NC6=O)cc4)O5)cc3C(=O)O)c3ccc(=[N+](CC)CC)cc-3oc2c1 (racemic) [Compound Q]
unit abbrev: %
inhibition at 10 µM: 75
//
molecule: Cc1c(C)c2c(c(C)c1CCCCCCNC(=O)OC(C)(C)C)CCC(C)(COc1ccc(/C=C3\SC(=O)NC3=O)cc1)O2 (racemic) [C]
unit abbrev: %
inhibition at 10 µM: 77
//
molecule: Cc1c(C)c2c(c(C)c1O)CCC(C)(COc1ccc(/C=C3\SC(=O)N(C)C3=O)cc1)O2 (racemic) [J]
unit abbrev: %
inhibition at 10 µM: 40
//
molecule: O=C1S/C(=C\c2ccc(O)cc2)C(=O)N1C/C=C/c1ccccc1 [Compound A]
unit abbrev: %
inhibition at 10 µM: 59
//
molecule: Cc1c(C)c2c(c(C)c1O)CCC(C)(COc1ccc(CC3SC(=O)NC3=O)cc1)O2 (stereo not drawn) [K, troglitazone, reference compound]
unit abbrev: %
inhibition at 10 µM: 14

With those in mind, consider the next molecule.
Request: Item Cc1c(C)c2c(c(C)c1CCCCCCN)CCC(C)(COc1ccc(/C=C3\SC(=O)NC3=O)cc1)O2 (racemic) [E, trifluoroacetate] : provide inhibition at 10 µM
Result: 87

---

# Test system: MCF7
# measurement description: Antiproliferative activity (MTS) on MCF7
# Assay type: cell-based, human
# condition details: Homo sapiens, MCF7; 10^-5 M, 72 hours, triplicate; read-out: percentage of inhibition of cell growth, MCF7
Structures can show the parent of a compound that is named as a salt.
Label satisfied when inhibition at 10 µM is at or above 60%; anything below gets not satisfied.

molecule: O=C1S/C(=C\c2ccc(O)cc2)C(=O)N1C/C=C/c1ccccc1
qualitative label: satisfied
--
molecule: Cc1c(C)c2c(c(C)c1CCCCCCN)CCC(C)(COc1ccc(/C=C3\SC(=O)N(C)C3=O)cc1)O2 (racemic) [D, trifluoroacetate]
qualitative label: satisfied
--
molecule: Cc1c(C)c2c(c(C)c1O)CCC(C)(COc1ccc(/C=C3\SC(=O)N(C)C3=O)cc1)O2 (racemic)
qualitative label: not satisfied
--
molecule: Cc1c(C)c2c(c(C)c1OC(=O)CCCCCCCN)CCC(C)(COc1ccc(/C=C3\SC(=O)N(C)C3=O)cc1)O2 (racemic)
qualitative label: satisfied

Field: next molecule
Request: # bool: inhibition at 10 µM of Cc1c(C)c2c(c(C)c1CCCCCCN)CCC(C)(COc1ccc(/C=C3\SC(=O)NC3=O)cc1)O2 (racemic) [E, trifluoroacetate] >= 60%
Result: satisfied

Cited source: patent US9522909B2
